Biological target: Rap guanine nucleotide exchange factor 4 (Homo sapiens) (UniProt Q8WZA2)
Sequence (Q8WZA2 whole entry, looked up): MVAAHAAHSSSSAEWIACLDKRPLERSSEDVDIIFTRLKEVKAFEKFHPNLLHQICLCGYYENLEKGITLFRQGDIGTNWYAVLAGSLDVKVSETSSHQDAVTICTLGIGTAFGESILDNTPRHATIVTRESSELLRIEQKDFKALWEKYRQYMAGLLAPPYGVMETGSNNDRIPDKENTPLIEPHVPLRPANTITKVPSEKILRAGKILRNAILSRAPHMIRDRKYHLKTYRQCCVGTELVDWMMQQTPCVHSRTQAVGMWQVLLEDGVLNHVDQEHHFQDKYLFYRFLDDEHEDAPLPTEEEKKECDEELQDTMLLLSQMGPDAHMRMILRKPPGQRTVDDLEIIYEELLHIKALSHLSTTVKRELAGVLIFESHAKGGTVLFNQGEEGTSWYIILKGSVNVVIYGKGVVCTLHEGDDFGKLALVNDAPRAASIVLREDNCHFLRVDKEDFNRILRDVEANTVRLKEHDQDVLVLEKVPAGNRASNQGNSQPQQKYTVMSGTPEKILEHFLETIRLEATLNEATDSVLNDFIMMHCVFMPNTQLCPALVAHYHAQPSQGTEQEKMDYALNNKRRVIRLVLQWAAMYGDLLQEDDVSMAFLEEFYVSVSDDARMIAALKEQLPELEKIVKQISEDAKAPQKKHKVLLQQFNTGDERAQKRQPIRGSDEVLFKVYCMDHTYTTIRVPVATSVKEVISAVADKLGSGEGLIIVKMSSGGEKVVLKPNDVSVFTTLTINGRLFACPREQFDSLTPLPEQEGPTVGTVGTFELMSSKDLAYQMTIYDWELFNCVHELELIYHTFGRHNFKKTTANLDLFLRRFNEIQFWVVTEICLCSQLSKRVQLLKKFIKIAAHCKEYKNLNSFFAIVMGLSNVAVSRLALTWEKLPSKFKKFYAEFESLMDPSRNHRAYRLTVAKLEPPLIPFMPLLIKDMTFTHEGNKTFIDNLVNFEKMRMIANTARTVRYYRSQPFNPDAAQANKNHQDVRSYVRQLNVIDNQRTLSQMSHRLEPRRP
Assay: Confirmatory qHTS for antagonist of cAMP-regulated guanine nucleotide exchange factor 4 (EPAC2) (AID 1645885); further: nearly all actives have a fitted effect of over 25% in size
Details: EPAC2 Rap1B-BODIPY-GDP exchange fluorescence, biochemical; series mostly up to 12.7 µM
Records with an inconclusive call do not appear. The source made the active and inactive calls. The call rests on the fitted dose curve; in most records, active means well fitted inhibition curve with a large enough effect; inconclusive means small, poorly fitted or top-dose-only effect; inactive means no such curve, though single readings can be large or run the other way.
Just give me one of these, please: t (active), f (inactive)

Test call for this compound, please: COc1ccccc1CNc1cc(C)nc2nc(-c3ccc(C)cc3)nn12
f

Then what about the compound COc1ccc2[nH]cc(S(=O)(=O)c3ccc(C)cc3)c2c1 ?
t

Then what about the compound Cn1c(N)c(C(=O)COC(=O)CCOc2ccc(C(C)(C)C)cc2)c(=O)n(C)c1=O ?
f

Then what about the compound O=C(/C=C/c1ccccc1Cl)c1ccc(O)cc1 ?
f

Then what about the compound O=[N+]([O-])c1ccc(NS(=O)(=O)c2ccc(Cl)c(Cl)c2)cc1 ?
f

Then what about the compound O=S(=O)(c1ccc(Br)c2ccccc12)N1CCCC1 ?
f

Then what about the compound Cn1/c(=N\NC(=O)C2CCCCC2)sc2ccccc21 ?
f

Then what about the compound O=C(Nc1ccccc1N1CCCCC1)c1cnccn1 ?
f

Then what about the compound CC(C)CCNC(=O)c1onc(CSc2ccccn2)c1C(=O)NCCC(C)C ?
f
